# assayed.system: COX-2 (Homo sapiens)
# Sequence (P35354 18-604): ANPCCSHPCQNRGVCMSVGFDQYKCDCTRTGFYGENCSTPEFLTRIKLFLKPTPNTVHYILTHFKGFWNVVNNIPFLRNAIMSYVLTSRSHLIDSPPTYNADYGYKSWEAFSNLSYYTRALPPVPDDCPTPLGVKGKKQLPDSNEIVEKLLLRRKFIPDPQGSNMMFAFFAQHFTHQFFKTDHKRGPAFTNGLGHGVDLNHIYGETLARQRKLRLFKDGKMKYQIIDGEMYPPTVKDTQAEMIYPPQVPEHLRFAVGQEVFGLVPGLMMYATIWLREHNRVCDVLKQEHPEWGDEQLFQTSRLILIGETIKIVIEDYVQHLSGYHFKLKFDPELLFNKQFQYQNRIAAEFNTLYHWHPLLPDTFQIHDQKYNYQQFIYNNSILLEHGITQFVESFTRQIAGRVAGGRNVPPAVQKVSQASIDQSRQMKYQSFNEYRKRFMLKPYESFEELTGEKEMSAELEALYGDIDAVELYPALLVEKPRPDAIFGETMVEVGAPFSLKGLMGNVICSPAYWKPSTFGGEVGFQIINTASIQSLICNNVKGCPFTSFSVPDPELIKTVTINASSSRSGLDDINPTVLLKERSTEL
# test.summary: biochemical
pIC50: −log10 of the molar value.
measured.attribute: pIC50

• CC(C)C/C=C\C(C)C1CCC2C3CCC4=CC(=O)CCC4(C)C3CCC12C (stereo not shown) [Compound 1] = 4.55

* * *

# assayed.system: acetylcholinesterase (AChE) (Electrophorus electricus)
# Construct: acetylcholinesterase (AChE, obtained from Electrophorus electricus); from tissue
# Sequence (O42275 24-633): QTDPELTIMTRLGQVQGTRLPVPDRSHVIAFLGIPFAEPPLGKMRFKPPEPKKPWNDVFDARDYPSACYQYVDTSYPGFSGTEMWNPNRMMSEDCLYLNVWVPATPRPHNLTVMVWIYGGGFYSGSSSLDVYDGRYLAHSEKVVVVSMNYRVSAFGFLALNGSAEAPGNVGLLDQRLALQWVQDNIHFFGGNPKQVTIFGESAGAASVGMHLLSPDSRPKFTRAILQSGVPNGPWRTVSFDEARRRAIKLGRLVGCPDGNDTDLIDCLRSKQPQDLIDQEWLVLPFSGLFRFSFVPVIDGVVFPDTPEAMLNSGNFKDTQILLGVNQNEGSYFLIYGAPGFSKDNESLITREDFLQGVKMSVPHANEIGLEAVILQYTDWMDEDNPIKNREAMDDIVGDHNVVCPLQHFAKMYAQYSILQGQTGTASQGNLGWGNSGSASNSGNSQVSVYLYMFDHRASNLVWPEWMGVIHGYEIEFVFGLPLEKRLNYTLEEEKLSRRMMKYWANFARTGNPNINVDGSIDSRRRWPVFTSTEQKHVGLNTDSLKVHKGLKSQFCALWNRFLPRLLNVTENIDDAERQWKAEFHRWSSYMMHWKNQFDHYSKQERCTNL
# test.summary: Anticholinesterase assay (Ellman's), AChE inhibition
# Format: biochemical
measured.attribute: IC50 (µM)

- CCC(CCC(C)C1CCC2C3CCC4=CC(=O)CCC4(C)C3CCC12C)C(C)C (stereo not shown): 35.2
